Just for reference, patent US12473262B2 is where these values come from.

Documented C0 across a set of compounds
Procedure Text: In vivo PK study, intravenous and oral administration in male mice
Parameters: species or system mouse
Experimental Conditions: mouse, PO 8 mg/Kg, plasma, read-out: C0_Cmax
I only need the number, in ng/mL, no unit after it.

# Compound, Result Units, C0
rows = [
    ("O=c1c2cccc3cccc(c32)c2nc3cc(Cl)ccc3n12 [Compound 362]", "ng/mL", 427),
]

[Q] Quick one: C0 of Clc1ccc2[nH]c(-c3cccc4ccccc34)cc2c1 [Compound 893, 5-chloro-2-(naphthalen-1-yl)-1H-indole] ?
[A] 398

###

Each record here notes measured Fold @ 10 uM.
Tested Target: aryl hydrocarbon receptor (AhR) (Mus musculus (Mouse))
Sequence (P30561 10-805): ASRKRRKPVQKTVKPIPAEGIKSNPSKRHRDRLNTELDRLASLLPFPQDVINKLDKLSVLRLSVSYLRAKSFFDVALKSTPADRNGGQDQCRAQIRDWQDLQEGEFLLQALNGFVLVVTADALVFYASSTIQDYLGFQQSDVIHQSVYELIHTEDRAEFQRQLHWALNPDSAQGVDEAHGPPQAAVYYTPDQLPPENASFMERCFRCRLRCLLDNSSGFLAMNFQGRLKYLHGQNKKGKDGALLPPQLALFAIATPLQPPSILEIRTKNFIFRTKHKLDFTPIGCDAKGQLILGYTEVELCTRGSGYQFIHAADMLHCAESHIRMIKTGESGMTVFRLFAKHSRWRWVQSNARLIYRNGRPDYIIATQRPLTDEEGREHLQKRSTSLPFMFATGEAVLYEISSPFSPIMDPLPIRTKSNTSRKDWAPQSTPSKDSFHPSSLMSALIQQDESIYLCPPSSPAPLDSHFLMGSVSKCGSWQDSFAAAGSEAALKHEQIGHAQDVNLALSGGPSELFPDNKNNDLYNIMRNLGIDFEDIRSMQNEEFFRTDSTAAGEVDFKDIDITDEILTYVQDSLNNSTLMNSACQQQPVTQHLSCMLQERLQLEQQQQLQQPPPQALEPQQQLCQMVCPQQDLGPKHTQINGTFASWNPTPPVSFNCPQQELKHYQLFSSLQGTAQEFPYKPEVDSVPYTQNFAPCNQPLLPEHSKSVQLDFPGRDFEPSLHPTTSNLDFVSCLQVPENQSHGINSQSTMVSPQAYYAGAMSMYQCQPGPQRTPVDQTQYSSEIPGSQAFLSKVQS
Sequence (P53762 whole entry partner): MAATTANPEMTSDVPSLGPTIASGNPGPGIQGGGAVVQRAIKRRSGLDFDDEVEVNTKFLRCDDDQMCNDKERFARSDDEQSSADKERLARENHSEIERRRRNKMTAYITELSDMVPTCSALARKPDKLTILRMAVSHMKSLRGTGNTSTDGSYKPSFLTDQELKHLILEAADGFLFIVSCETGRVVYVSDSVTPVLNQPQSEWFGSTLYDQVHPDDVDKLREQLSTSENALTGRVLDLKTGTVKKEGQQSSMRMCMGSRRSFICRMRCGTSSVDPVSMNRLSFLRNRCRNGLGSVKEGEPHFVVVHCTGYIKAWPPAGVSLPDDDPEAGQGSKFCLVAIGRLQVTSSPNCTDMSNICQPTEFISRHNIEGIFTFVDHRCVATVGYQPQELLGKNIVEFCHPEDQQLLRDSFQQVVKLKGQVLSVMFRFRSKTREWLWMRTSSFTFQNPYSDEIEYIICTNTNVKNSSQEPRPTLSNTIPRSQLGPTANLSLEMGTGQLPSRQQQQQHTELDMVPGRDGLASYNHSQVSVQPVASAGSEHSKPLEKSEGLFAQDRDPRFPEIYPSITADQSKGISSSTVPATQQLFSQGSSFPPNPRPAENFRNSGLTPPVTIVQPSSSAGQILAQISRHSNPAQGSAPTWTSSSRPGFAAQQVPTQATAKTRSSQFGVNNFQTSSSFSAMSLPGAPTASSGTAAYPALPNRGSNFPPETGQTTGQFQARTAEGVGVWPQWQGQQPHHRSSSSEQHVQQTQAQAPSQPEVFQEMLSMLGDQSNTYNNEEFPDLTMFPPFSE
Procedure Text: AhR ligand screening: AhRE-luciferase reporter in transfected Hepa1 cells
Assay type: cell-based
Experimental Conditions: fold change of luciferase expression at 10 uM test compound relative to vehicle (0.1% DMSO)
Reply with just the number (in fold).

Example entries and their recorded answers appear below.
# Compound, Tested Target, Fold @ 10 uM / fold
rows = [
    ("CC(C)(C)c1cccc(-c2nc3cc(Cl)ccc3n2C(=O)c2ccc(F)c(F)c2)c1", "aryl hydrocarbon receptor (AhR) (Mus musculus (Mouse))", 4),
    ("O=C(c1ccc(F)c(F)c1)n1c(-c2ccc3ccccc3c2)nc2cc(Cl)ccc21", "aryl hydrocarbon receptor (AhR) (Mus musculus (Mouse))", 56),
]

Read the next record carefully.
[Q] Which Fold @ 10 uM is reported for this compound? "COc1ccc(Cn2c(-c3cccc4ccccc34)nc3ccc(Cl)cc32)cc1"
[A] 11

###

Procedure Text: In vivo PK study, intravenous and oral administration in male mice
Design: species or system mouse
Experimental Conditions: mouse, IV 2 mg/Kg, plasma, read-out: C0_Cmax
C0: recorded values
# unit: ng/mL | format: bare number

# Molecule, C0 (ng/mL)
records = [
    ("Clc1ccc2[nH]c(-c3cccc4ccccc34)cc2c1 [Compound 893, 5-chloro-2-(naphthalen-1-yl)-1H-indole]", 174),
]

Note: attention shifts to another entry.
[Q] C0 for O=c1c2cccc3cccc(c32)c2nc3cc(Cl)ccc3n12 [Compound 362] ?
[A] 215

###

Procedure Text: Liver microsomal stability, human
Experimental Conditions: human liver microsomes, 30 min, 1 μM compound, 0.5 mg/ml protein
Parameter Measured: Rem @ HLM × 30 min (%)
Write it as a number; the unit % goes unstated.

Answered cases to consult:
# Molecule, Result Units, Val
records = [
    ("O=C(c1cccc(Cl)c1Cl)c1c[nH]c2ccc(Cl)cc12", "%", 30.2),
    ("O=C(c1ccc(Cl)cc1Cl)c1c[nH]c2ccc(Cl)cc12", "%", 44.7),
    ("Clc1ccc2[nH]c(-c3cccc4ccccc34)cc2c1", "%", 19.6),
    ("O=C(c1cccc2ccccc12)C1CN(C(=O)c2ccccc2)c2ccc(Cl)cc21 (centres unmarked)", "%", 58.0),
]

[Q] Reported Rem @ HLM × 30 min for "CN(C)c1ccc(C(=O)c2c[nH]c3ccc(Cl)cc23)cc1" : what is it?
[A] 54.3

[Q] If you can, please state the reported Rem @ HLM × 30 min value of "O=S(=O)(c1ccc(C(F)(F)F)cc1)n1c(-c2cccc3ccccc23)nc2cc(Cl)ccc21" .
[A] 44.4

[Q] Given "O=C(c1ccc(SC(F)(F)F)cc1)c1c[nH]c2ccc(Cl)cc12" , state its recorded Rem @ HLM × 30 min.
[A] 81.2

[Q] Quick one: Rem @ HLM × 30 min of "O=C(c1ccccc1)c1c[nH]c2ccc(Cl)cc12" ?
[A] 24.7

[Q] Fill in the blank: the reported Rem @ HLM × 30 min of "O=S(=O)(c1ccc2ccccc2c1)n1c(-c2cccc3ccccc23)nc2ccc(Cl)cc21" is ____.
[A] 27.4

[Q] Consider the molecule "O=C(c1ccc(F)c(F)c1)n1c(-c2ccc(-c3ccccc3)cc2)nc2ccc(Cl)cc21" and give its measured Rem @ HLM × 30 min.
[A] 69.8

[Q] Given the entry "O=C(C1CC1)n1c(-c2cccc3ccccc23)cc2cc(Cl)ccc21" , report its measured Rem @ HLM × 30 min.
[A] 73.0

[Q] What value of Rem @ HLM × 30 min has been reported for the following molecule? "COc1ccc(C(=O)c2c[nH]c3ccc(Cl)cc23)cc1"
[A] 57.9

[Q] For "O=S(=O)(c1ccc(C(F)(F)F)cc1)n1c(-c2cccc3ccccc23)nc2ccc(Cl)cc21" , what is its reported Rem @ HLM × 30 min?
[A] 66.4

[Q] So what's the measured Rem @ HLM × 30 min for this one? "CCc1ccc(S(=O)(=O)n2c(-c3cccc4ccccc34)nc3ccc(Cl)cc32)cc1"
[A] 28.3

[Q] What measured Rem @ HLM × 30 min goes with "O=C(c1ccc(F)c(F)c1)n1c(-c2cccc3ccccc23)cc2cc(Cl)ccc21" ?
[A] 34.2

[Q] Find the recorded Rem @ HLM × 30 min belonging to "O=S(=O)(c1ccc2ccccc2c1)n1c(-c2cccc3ccccc23)nc2cc(Cl)ccc21" and report it.
[A] 54.2

[Q] Reported Rem @ HLM × 30 min, molecule "O=C(C1CC1)n1c(-c2cccc3ccccc23)nc2ccc(Cl)cc21" : ____
[A] 52.7

###

Procedure Text: in vitro
Experimental Conditions: rat, microsomes, pH 7.4
Parameter Measured: half-life at 1 μM (min)
API: value field is a number in min; no unit string.

# Compound, half-life at 1 μM, min
measured = [
    ("O=C(c1cccc2ccccc12)c1c[nH]c2cc(Cl)c(Cl)cc12 [Compound 434]", 28),
]

[Q] # half-life at 1 μM lookup, item O=C(c1ccc2ccccc2c1)c1c[nH]c2ccc(Cl)cc12 [Compound 885]
[A] 30.7

###

A collection of molecules and their measured pIC50
Tested Target: UniProt:P11712
Procedure Text: CYP panel profile: P450 inhibition, CYP-2C9
Assay type: in vitro ADME
Experimental Conditions: human liver microsomes
Experimental: 5. CYP Panel Profile: P450 Inhibition From 10 mM stock solutions of test compounds, a dilution plate was prepared diluting serially starting from 5 mM up to 2 μM in Acetonitrile/DMSO or Methanol/DMSO Human liver Microsomes were added at required concentration as per specific CYP isoform in a deep well assay plate (1A2, 2C9, 2D6, 2B6, 2C8, 2C19, and 3A4). […]
To interpret pIC50, take it as minus log10 of a concentration measured in moles per litre.

# Molecule, Tested Target, pIC50
data = [
    ("COC(=O)c1ccc2c(c1)nc(-c1cccc3ccccc13)n2C(=O)c1ccc(F)c(F)c1 [Compound 848]", "UniProt:P11712", 5.20),
    ("O=C(c1ccccc1)n1c(-c2cccc3ccccc23)nc2cc(Cl)c(Cl)cc21 [Compound 693]", "UniProt:P11712", 4.94),
    ("O=C(c1ccc(F)c(F)c1)n1c(-c2cccc3ccccc23)nc2cc(Cl)ccc21 [Compound 529]", "UniProt:P11712", 5.46),
]

[Q] pIC50 lookup needed for COC(=O)c1ccc2nc(-c3cccc4ccccc34)n(C(=O)c3ccc(F)c(F)c3)c2c1 [Compound 849] , thanks.
[A] 5.11

[Q] Fill blank: measured pIC50 of the molecule O=C(c1ccccc1)n1c(-c2cccc3ccccc23)nc2cc(OC(F)(F)F)ccc21 [Compound 703] is ____.
[A] 5.28

###

Tested Target: CYP-2C8 (Homo sapiens (Human), UniProt P10632)
Sequence (P10632 whole entry): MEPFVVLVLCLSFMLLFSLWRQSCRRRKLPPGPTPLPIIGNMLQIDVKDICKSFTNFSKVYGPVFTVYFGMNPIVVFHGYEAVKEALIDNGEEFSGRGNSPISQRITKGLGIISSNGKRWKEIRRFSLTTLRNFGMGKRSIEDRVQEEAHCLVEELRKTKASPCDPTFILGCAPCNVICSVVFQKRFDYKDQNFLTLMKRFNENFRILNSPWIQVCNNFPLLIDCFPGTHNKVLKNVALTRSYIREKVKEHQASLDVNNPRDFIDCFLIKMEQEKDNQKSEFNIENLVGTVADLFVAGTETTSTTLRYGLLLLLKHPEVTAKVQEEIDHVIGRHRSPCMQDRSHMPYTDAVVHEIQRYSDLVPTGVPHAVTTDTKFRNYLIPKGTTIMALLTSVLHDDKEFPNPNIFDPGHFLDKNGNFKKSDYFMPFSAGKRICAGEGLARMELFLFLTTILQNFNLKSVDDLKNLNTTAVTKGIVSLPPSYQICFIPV
Procedure Text: CYP panel profile: P450 inhibition, CYP-2C8
Format: in vitro ADME
Experimental Conditions: human liver microsomes
Parameter Measured: IC50 (µM)
# output: bare number, implied unit µM

# Compound, Tested Target, IC50 (µM)
measured = [
    ("O=C(c1c(F)cc(Br)cc1F)n1c(-c2cccc3ccccc23)nc2cc(Cl)ccc21 [Compound 638]", "CYP-2C8 (Homo sapiens (Human), UniProt P10632)", 1.8),
]

Could you now consider this next compound?
[Q] Query (compound): COc1ccc(C(=O)n2c(-c3cccc4ccccc34)nc3cc(Cl)ccc32)cc1 [Compound 535] ; field requested: IC50
[A] 21.8

###

# key: entry, value: microsomal CLint at 1 μM
Procedure Text: in vitro
Experimental Conditions: human, microsomes, pH 7.4
Hi! Could you send only the number? It should be in µL/min/mg, unit omitted.

# Molecular String, Val
records = [
    ("O=C(c1cccc2ccccc12)c1c[nH]c2cc(Cl)c(Cl)cc12", 28.5),
]

Now for a further molecule.
[Q] Please look up its microsomal CLint at 1 μM: "O=C(c1ccc2ccccc2c1)c1c[nH]c2ccc(Cl)cc12"
[A] 37.7

###

Tested Target: CYP-2C9 (Homo sapiens (Human))
Sequence (P11712 whole entry): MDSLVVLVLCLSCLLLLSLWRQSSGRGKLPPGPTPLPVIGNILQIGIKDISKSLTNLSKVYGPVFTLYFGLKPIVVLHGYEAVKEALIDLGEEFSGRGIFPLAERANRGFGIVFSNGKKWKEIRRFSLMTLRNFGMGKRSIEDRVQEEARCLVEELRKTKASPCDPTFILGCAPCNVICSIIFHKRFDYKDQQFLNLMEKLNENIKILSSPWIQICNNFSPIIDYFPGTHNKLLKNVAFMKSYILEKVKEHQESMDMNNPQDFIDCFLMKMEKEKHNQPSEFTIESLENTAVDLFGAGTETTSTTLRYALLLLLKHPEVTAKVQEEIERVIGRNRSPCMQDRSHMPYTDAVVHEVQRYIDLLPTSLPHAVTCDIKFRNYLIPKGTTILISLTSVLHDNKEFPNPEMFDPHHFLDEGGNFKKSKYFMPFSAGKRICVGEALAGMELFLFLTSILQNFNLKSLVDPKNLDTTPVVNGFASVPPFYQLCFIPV
Procedure Text: CYP panel profile: P450 inhibition, CYP-2C9
Assay type: in vitro ADME
Experimental Conditions: human liver microsomes
The following compounds are shown together with reported pIC50 values.
Note on pIC50: it is the negative log10 of concentration, concentration in mol/L.

# Molecular String, pIC50
rows = [
    ("O=C(c1ccccc1)n1c(-c2cccc3ccccc23)nc2ccc(Cl)cc21", 5.25),
    ("O=C(c1cccc2ccccc12)n1c(-c2cccc3ccccc23)nc2cc(Cl)ccc21", 5.05),
]

[Q] What value of pIC50 has been recorded for this entry: "O=C(c1ccccc1)n1c(-c2cccc3ccccc23)nc2cc(Cl)ccc21"
[A] 5.38
